- assayProtocol: Caspase-3/7 induction in HepG2 cells by small molecules, qHTS cell viability counter screen (AID 1346981); note: nearly all actives have a fitted effect of over 30% in size
- particulars: CellTiter-Fluor fluorescence, 17 h; series mostly up to 92.4 µM
Inconclusive results are not listed. Active and inactive are the calls of the source. Calls come from the whole dose curve; as a rule, active = well fitted cell-killing curve with a large enough effect in the repeat runs; inconclusive = weak or mixed curves, or effect the other way; inactive = flat fitted curve, though single readings scatter.
Outcome codes: active, inactive

CCN(CC)c1cccc(O)c1 : inactive
CCCCC[C@H](O)/C=C/[C@H]1[C@H](O)CC(=O)[C@@H]1C/C=C\CCCC(=O)O : inactive
CC(C)C1CCC(C(=O)N[C@H](Cc2ccccc2)C(=O)O)CC1 (some centres not stated) : inactive
O=C1CC[C@@H](C(=O)O)N1 : inactive
Cc1cccc(C)c1NC(=O)c1cc(S(N)(=O)=O)c(Cl)cc1O : inactive
Cc1ccc(Cl)cc1N : inactive
Cc1ccc(N(CCO)CCO)cc1 : inactive
CC(C(=O)O)c1ccc(C(=O)c2cccs2)cc1 (configuration not stated) : inactive
CCCCCCCCCCCSCC(=O)O : inactive
Cc1ccccc1S(N)(=O)=O : inactive
O=C(O)CO : inactive
CCCCCC : inactive
O=C(O)CCC(=O)OC[C@@H](NC(=O)C(Cl)Cl)[C@H](O)c1ccc([N+](=O)[O-])cc1 : inactive
CC[C@@H](CO)NCCN[C@@H](CC)CO : inactive
O=S(=O)(O)CO : inactive
Oc1cccc2[nH]ccc12 : inactive
O=C1OC[C@H](Cc2cccc(O)c2)[C@H]1Cc1cccc(O)c1 : inactive
CCC(CO)(CO)[N+](=O)[O-] : inactive
CCCCC(CC)COS(=O)(=O)O (configuration not stated) : inactive
C=CCOC(=O)COCCC(C)C : inactive
CC(C)(C)S : inactive
CCCCCCCCCCCC(=O)OCC(O)CO (configuration not stated) : inactive
CC(=O)C(C)=O : inactive
Cc1cc(CCC(=O)OCCOCCOCCOC(=O)CCc2cc(C)c(O)c(C(C)(C)C)c2)cc(C(C)(C)C)c1O : inactive
CC(=O)N[C@@H](Cc1ccc(O)cc1)C(=O)O : inactive
O=C(NC(Cc1cc(=O)[nH]c2ccccc12)C(=O)O)c1ccc(Cl)cc1 (configuration not stated) : inactive
CCN(CC)CCOC(=O)C(c1ccccc1)c1ccccc1 : inactive
O=[N+]([O-])C1(Br)COCOC1 : inactive
CCC1CCC(CCC(=O)O)C1 (configuration not stated) : inactive
O=C(O)c1cccc(Oc2ccccc2)c1 : inactive
Cc1cc([N+](=O)[O-])ccc1N : active
CC[C@H]1OC(=O)[C@H](C)[C@@H](O[C@H]2C[C@@](C)(OC)[C@@H](O)[C@H](C)O2)[C@H](C)[C@@H](O[C@@H]2O[C@H](C)C[C@H](N(C)C)[C@H]2O)[C@](C)(O)C[C@@H](C)CN(C)[C@H](C)[C@@H](O)[C@]1(C)O : inactive

###

- assayProtocol: qHTS assay to identify small molecule antagonists of the androgen receptor (AR) signaling pathway using the MDA cell line - cell viability counter screen (AID 743041; note: nearly all actives have a fitted effect of over 45% in size)
- particulars: MDA-kb2 viability, CellTiter-Fluor, 16 h, cells co-treated with R1881 androgen agonist; series mostly up to 70.3 µM
- From the text: National Center for Advancing Translational Sciences [NCATS] NIH Chemical Genomics Center [NCGC] U.S. Environmental Protection Agency [EPA] National Institutes of Environmental Health Sciences [NIEHS] National Toxicology Program [NTP] U.S. Food and Drug Administration [FDA] Androgen receptor (AR), a nuclear hormone receptor, plays a critical role in AR-dependent prostate cancer and other androgen related diseases. […]
Inconclusive results are not listed. Calls of active or inactive are those of the source. Calls follow the shape of the dose curve; as a rule, active = well fitted cell-killing curve with a large enough effect in the repeat runs; inconclusive = weak or mixed curves, or effect the other way; inactive = flat fitted curve, though single readings scatter.
Outcome codes: true (1) (active), false (0) (inactive)

O=[N+]([O-])c1ccc2ncccc2c1 : false (0)
O=C(NS(=O)(=O)/C=C/c1ccccc1)c1ccc(F)cc1Cl : false (0)
CCOC(=O)c1ccc(NC(=O)CN2CCCCC2)cc1 : false (0)
CS(=O)(=O)c1ccc([C@@H](C[C@H]2CCC(=O)C2)C(=O)Nc2cnccn2)cc1Cl : false (0)
CCCCCCCCCCCCCC(=O)OCC(O)CO (centres undefined) : false (0)
O=S(=O)(O)CO : false (0)
COc1ccc(-c2cc(C(F)F)nn2-c2ccc(S(N)(=O)=O)cc2)cc1F : false (0)
C=CC(=O)O : false (0)
CN1C(CSCC(F)(F)F)Nc2cc(Cl)c(S(N)(=O)=O)cc2S1(=O)=O (centres undefined) : false (0)
CN(C)CC/C=C1\c2ccccc2Sc2ccc(Cl)cc21 : true (1)
CC(C)c1ccc(C(=O)N=C(N)N)cc1S(C)(=O)=O : false (0)
CSSc1ccoc1C : false (0)
Cc1cn([C@H]2C[C@H](F)[C@@H](CO)O2)c(=O)[nH]c1=O : false (0)
CCCCC[C@H](O)/C=C/[C@H]1[C@H](O)CC(=O)[C@@H]1C/C=C\CCCC(=O)O : false (0)
CCOC(=O)C(C)O (centres undefined) : false (0)
Cc1ccc2nc(N)[nH]c(=O)c2c1Sc1ccncc1 : false (0)
O=[N+]([O-])C1(Br)COCOC1 : false (0)
CC(C)C(=O)OCCOc1ccccc1 : false (0)
CCCCCCCC(=O)OCCCCCC : false (0)
CO[C@@H]1[C@@H](OC)[C@H](C)[C@@](O)(CC(=O)O)O[C@H]1[C@H](C)[C@H]1O[C@@]2(CC[C@@](C)([C@H]3CC[C@@](C)([C@@H]4O[C@@H]([C@H]5O[C@](C)(O)[C@H](C)C[C@@H]5C)C[C@@H]4OC4C[C@H](OC)[C@@H](OC)[C@H](C)O4)O3)O2)C[C@H](O)[C@H]1C (some centres undefined) : true (1)
O=c1[nH][nH]c(=O)c2cc([N+](=O)[O-])ccc12 : false (0)
C=C(C)c1ccccc1 : false (0)
CC1=CC[C@@]23C[C@@H]1C(C)(C)[C@@H]2CC[C@H]3C : false (0)
CC(C)N(C)C : false (0)

###

- assayProtocol: qHTS assay to identify small molecule agonists of the farnesoid-X-receptor (FXR) signaling pathway - cell viability counter screen (AID 743218); note: nearly all actives have a fitted effect of over 45% in size
- particulars: FXR-bla HEK293T viability, CellTiter-Glo luminescence, 16 h; series mostly up to 62.6 µM
Inconclusive results are not listed. Active and inactive are the calls of the source. Calls follow the shape of the dose curve; as a rule, active = well fitted cell-killing curve with a large enough effect in the repeat runs; inconclusive = weak or mixed curves, or effect the other way; inactive = no such curve, though single readings can be large or run the other way.
Outcome codes: true = active, false = inactive

Cc1cccc2sc(N)nc12 : false
CC1CCc2nccnc21 (configuration not stated) : false
O=C1[C@@H]2[C@H]3CC[C@H](C3)[C@@H]2C(=O)N1CCCCN1CCN(c2ncccn2)CC1 : false
C[C@@H]1C[C@H]2[C@@H]3CCC4=CC(=O)C=C[C@]4(C)[C@@]3(F)[C@@H](O)C[C@]2(C)[C@@]1(O)C(=O)COP(=O)(O)O : false
Cc1ccccc1S(N)(=O)=O : false
CC(CO)(CO)C(=O)O : false
Nc1ccc(NC(=O)c2ccc(N)cc2)cc1 : false
CCN(CC)CCOc1ccccc1C(=O)CCc1ccccc1 : true
CCC(CO)(CO)[N+](=O)[O-] : false
O[C@@H](CNC[C@H](O)[C@H]1CCc2cc(F)ccc2O1)[C@@H]1CCc2cc(F)ccc2O1 : true
CN1CCCN(C(c2ccccc2)c2ccc(Cl)cc2)CC1 (configuration not stated) : true
O=S(=O)(Cl)c1c(Cl)cccc1Cl : false
CNS(=O)(=O)c1cc(C(=O)N2CCC(CCN3C4CCC3CC(n3c(C)nc5ccccc53)C4)(c3cccc(F)c3)CC2)c(Cl)cc1F (configuration not stated) : true
O=CNNC=O : false
Cc1ccc(Nc2c(F)cccc2Cl)c(CC(=O)O)c1 : false
CCOC(=O)Oc1ccc(CCNC(=O)[C@H](CCSC)NC(C)=O)cc1OC(=O)OCC : false
CCc1ccc(C)cc1 : false
Cc1cccc(C)c1NC(=O)c1cc(S(N)(=O)=O)c(Cl)cc1O : false
O=C(O)CCCc1c[nH]c2ccccc12 : false
CC12CC3CC(C)(C1)CC(N)(C3)C2 : false
CCOC(=O)C(C)O (configuration not stated) : false
CC(=O)OCC1=C(C(=O)O)N2C(=O)[C@@H](NC(=O)CSc3ccncc3)[C@H]2SC1 : false
COC1CCC=CO1 (configuration not stated) : false
CC(C)c1ccc(C#N)cc1 : false
O=C(O)CCC(=O)OC[C@@H](NC(=O)C(Cl)Cl)[C@H](O)c1ccc([N+](=O)[O-])cc1 : false
c1ccc2sc(SSc3nc4ccccc4s3)nc2c1 : false
CC(C)(C)NCC(O)COc1cccc2c1C[C@H](O)[C@H](O)C2 (some centres not stated) : false
CC(C)C1CCC(C(=O)N[C@H](Cc2ccccc2)C(=O)O)CC1 (some centres not stated) : false
Cc1c[nH]c2ccccc12 : false
CC(C)(C(=O)c1cccnc1)c1cccnc1 : false
CC(=O)N[C@@H](Cc1ccc(O)cc1)C(=O)O : false
OCC(CO)n1cnc(-c2ccc(F)cc2)c1-c1ccnc(Oc2ccccc2)n1 : false
CC[C@@H](CO)NCCN[C@@H](CC)CO : false
Cc1ccc(S(=O)(=O)NC(=O)NC2CCCCC2)cc1 : false
Nc1ccc(N=Nc2ccc(N)cc2)cc1 : false
FC(F)(F)C(F)(F)C(F)(F)C(F)(F)CCI : false
CCCCCCCCCCCCCCCCCC(=O)OCC(CC)CCCC (configuration not stated) : false
CC(C)c1ccc(C(=O)N=C(N)N)cc1S(C)(=O)=O : false
CC[C@H]1OC(=O)[C@H](C)[C@@H](O[C@H]2C[C@@](C)(OC)[C@@H](O)[C@H](C)O2)[C@H](C)[C@@H](O[C@@H]2O[C@H](C)C[C@H](N(C)C)[C@H]2O)[C@](C)(O)C[C@@H](C)/C(=N\OCOCCOC)[C@H](C)[C@@H](O)[C@]1(C)O : false
CC(C)(O)CCc1ccccc1 : false
CCCCCCCC/C=C\CCCCCCCC(=O)OCCO : false
SCCc1cnccn1 : false
Oc1ccc2c(c1)Cc1ccccc1-2 : false
COc1cc(OC)c2ccc(=O)oc2c1 : false
CCCCCCOC(=O)CCCCC : false
CC[C@H]1OC(=O)[C@H](C)[C@@H](O[C@H]2C[C@@](C)(OC)[C@@H](O)[C@H](C)O2)[C@H](C)[C@@H](O[C@@H]2O[C@H](C)C[C@H](N(C)C)[C@H]2O)[C@](C)(O)C[C@@H](C)C(=O)[C@H](C)[C@@H](O)[C@]1(C)O : false
O=C(CCS)OCC(COC(=O)CCS)(COC(=O)CCS)COC(=O)CCS : false

This collection of values is drawn from PubChem BioAssay (Tox21).
